# study-target: T1, human IL-2Rβ (human, UniProt P14784 27-240, limits assumed)
# T1 construct: Recombinant human IL-2Rβ protein, coated on ELISA plates or immobilized on a CM5 chip; also called hu IL-2R; interleukin 2 receptor β-chain
# T1 sequence: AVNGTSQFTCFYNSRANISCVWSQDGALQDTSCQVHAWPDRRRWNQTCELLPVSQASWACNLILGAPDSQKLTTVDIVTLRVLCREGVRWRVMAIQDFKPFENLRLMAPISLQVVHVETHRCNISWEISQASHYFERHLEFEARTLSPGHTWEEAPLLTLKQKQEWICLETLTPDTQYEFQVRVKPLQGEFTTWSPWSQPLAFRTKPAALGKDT
# experiment-summary: SPR off-rate ranking of P.E., human IL-2Rβ immobilized
endpoint-name: koff (s⁻¹)

INSERT INTO results (binder, endpoint_name, numeric_value) VALUES
  ('FJ1427_P035MP06A05 (VHH, Soluble VHH in periplasmic extract (P.E.); also called Clone nr) VHH: QVQLVESGGGLVQAGGSLRLSCAVSGDVFVRYTMAWFRQAPGKEREFVASVTDSGRTTDYVHSVKGRFTVSRDNAKNTVYLQMNNLKPEDTAVYYCAANTDYFQIKSLDANTWGQGTQVTVSS', 'koff', 0.00118),
  ('FJ1427_P035MP06C08 (VHH, Soluble VHH in periplasmic extract (P.E.); also called Clone nr) VHH: QVQLVESGGGLVQAGGSLRLSCAASGDVFVRYTMAWFRQAPGKEREFVASVTDSGRTTEYVDSVKGRFTVSRDNAKNTAYLQMNNLKPEDTAIYYCAANTDYFQIRSLDLNTWGQGTQVTVSS', 'koff', 0.000335),
  ('FJ1427_P035MP06E04 (VHH, Soluble VHH in periplasmic extract (P.E.); also called Clone nr) VHH: QVQLVESGGGLVQAGGSLRLSCAVSGDVFVRYTMAWFRQAPGKEREFVASVTDSGRTTEYVDSVKGRFTVSRDNAKNTAYLQMNNLKPEDTAVYYCAANTDYFQIRSLDLNTWGQGTQVTVSS', 'koff', 0.000198),
  ('FJ1427_P035MP06A03 (VHH, Soluble VHH in periplasmic extract (P.E.); also called Clone nr) VHH: EVQLVESGGGLVQAGGSLRLSCAASGDVFVRYTMAWFRQAPGKEREFVASVTDSGRTTDYVDSVKGRFTVSRDNAKNTVYLQMNNLKPEDTAVYYCAANTDYFQIRSLEFNTWGQGTQVTVSS', 'koff', 0.000882),
  ('FJ1427_P035MP06D05 (VHH, Soluble VHH in periplasmic extract (P.E.); also called Clone nr) VHH: QVQLVESGGGLVQAGGSLRLSCAVSGDVFVRYTMAWFRQAPGKEREFVASVTDSGRTTEYVDSVKGRFTVSRDNAKNTVYLQMNSLKPEDTAVYYCAANTDYFQIRSLRANTWGQGTQVTVSS', 'koff', 0.000483),
  ('FJ1427_P035MP06F09 (VHH, Soluble VHH in periplasmic extract (P.E.); also called Clone nr; 550) VHH: QVQLVESGGGLVQAGGSLTLSCAASGRAFSNYPVGWFRQAPGKEREFVAAITWLSGSTLYADSVEGRFTISRDNAKNTVYLLMSSLKPEDTALYFCAAALKTITRGQNDYSYWGQGTQVTVSS', 'koff', 0.000147),
  ('FJ1427_P035MP06D04 (VHH, Soluble VHH in periplasmic extract (P.E.); also called Clone nr) VHH: QVQLQESGGGLVQAGGSLRLSCVVSGDVFVRYTMAWFRQAPGKEREFVAVVTDSGRTTEYVDSVKGRFTVSRDNAKNTVYLQMNNLKPEDTAVYYCAANTDYFQIRSVDNNAWGQGTQVTVSS', 'koff', 0.000621),
  ('FJ1427_P035MP06H02 (VHH, Soluble VHH in periplasmic extract (P.E.); also called Clone nr) VHH: QVQLVESGGGLVQAGGSLRLSCAVSGDVFVRYTMAWFRQAPGKEREFVASVTDSGRTTEYVDSVKGRFTVSRDNAKNTAYLQMNNLKPEDTAVYYCAANTDYFQIRSLDLNTWGQGTQVTVSS', 'koff', 0.000171);
